TARGET_DESC: UniProt:P43116
PROCEDURE_DETAILS: Measurement of EP2 receptor binding action
Parameters: expressed in transfected cells; host or cells: HEK293 cells (membrane fraction)
COND: [3H]prostaglandin E2 10 nM; membrane fraction of HEK293 cells expressing human EP2 receptor; read-out: Ki Value of EP2 Receptor Binding Action
READOUT_NAME: pKi
Scale for pKi: -log10 of concentration given in mol/L; no unit attached.

Query: I would be grateful if you could share the reported pKi for O=C(O)CNc1cccc(CN(Cc2ccc(-c3nccs3)cc2)S(=O)(=O)c2ccc(F)cc2)n1 .
Result: 8.55

###

TARGET_DESC: EP2 (Homo sapiens)
PROCEDURE_DETAILS: Measurement of EP2 agonist activity (cAMP in HEK293 cells)
COND: amount of cAMP in HEK293 cells (ES-562-C, Euroscreen), 30 minutes
pEC50: −log10 of the molar value. Where a name gives a salt, the structure may show the parent alone.
Decide by pEC50: equal to or exceeding 9 means true (1), less means false (0).

# example entries with known answers
| COMPOUND | TARGET_DESC | CLASS_NAME |
| --- | --- | --- |
| O=C(O)CNc1cccc(CN(Cc2cc3ccc(Cl)cc3s2)S(=O)(=O)c2cccnc2)n1 [Example 12, hydrochloride] | EP2 (Homo sapiens) | true (1) |
| O=C(O)CNc1cccc(CN(Cc2ccc(-c3ncccn3)cc2)S(=O)(=O)c2ccccn2)n1 [Example 18, hydrochloride] | EP2 (Homo sapiens) | false (0) |
| O=C(O)CNc1cccc(CN(Cc2ccc(-c3ccccc3)cc2)S(=O)(=O)c2cccnc2)n1 [Example 6, hydrochloride] | EP2 (Homo sapiens) | false (0) |
| O=C(O)CNc1cccc(CN(Cc2ccc(-c3nccs3)cc2)S(=O)(=O)c2ccccn2)n1 | EP2 (Homo sapiens) | true (1) |
| O=C(O)CNc1cccc(CN(Cc2ccc(-c3nccs3)cc2)S(=O)(=O)c2ccc(F)cc2)n1 | EP2 (Homo sapiens) | true (1) |

Query: API: above_or_equal(metric=pEC50, cutoff=9) for item O=C(O)CNc1cccc(CN(Cc2ccc(-c3ccccn3)cc2)S(=O)(=O)c2cccnc2)n1
Result: false (0)

Query: Entry O=C(O)CNc1cccc(CN(Cc2ccc(-c3nccs3)cc2)S(=O)(=O)c2cccnc2)n1 [Example 11, trifluoroacetate] : is its pEC50 no less than 9?
Result: true (1)

Query: Check the entry O=C(O)CNc1cccc(CN(Cc2ccc(-c3nc(C(F)(F)F)cs3)cc2)S(=O)(=O)c2ccccn2)n1 : does pEC50 equal or exceed 9?
Result: false (0)

Query: Check if pEC50 >= 9 (inclusive). Item: O=C(O)CNc1cccc(CN(Cc2cc3ccccc3s2)S(=O)(=O)c2cccnc2)n1 [Example 13, hydrochloride]
Result: false (0)

Query: State whether the measured pEC50 reaches 9, counting equality as reaching it, for O=C(O)CNc1cccc(CN(Cc2cc3ccccc3o2)S(=O)(=O)c2cccnc2)n1 [Example 8, hydrochloride]
Result: false (0)

Query: Does pEC50 meet or surpass 9 for O=C(O)CNc1cccc(CN(Cc2ccc(-n3cccn3)cc2)S(=O)(=O)c2cccnc2)n1 [Example 7, hydrochloride] ?
Result: false (0)

###

TARGET_DESC: EP2 (Homo sapiens, UniProt P43116)
Sequence (P43116 whole entry): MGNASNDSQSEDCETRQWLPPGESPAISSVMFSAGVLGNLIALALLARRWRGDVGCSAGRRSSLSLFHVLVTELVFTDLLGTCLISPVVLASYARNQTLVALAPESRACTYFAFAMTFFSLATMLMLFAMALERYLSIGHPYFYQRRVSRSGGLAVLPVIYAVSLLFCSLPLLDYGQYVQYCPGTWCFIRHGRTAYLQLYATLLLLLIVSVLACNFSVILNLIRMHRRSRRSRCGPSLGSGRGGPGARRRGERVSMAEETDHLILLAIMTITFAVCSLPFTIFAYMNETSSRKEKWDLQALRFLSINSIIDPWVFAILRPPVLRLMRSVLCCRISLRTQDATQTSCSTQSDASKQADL
PROCEDURE_DETAILS: Measurement of EP2 receptor binding action
Set-up: expressed in transfected cells; host or cells: HEK293 cells (membrane fraction)
COND: read-out: Ki Value of EP2 Receptor Binding Action
Where a name gives a salt, the structure may show the parent alone.
pKi reference
Please note pKi is a logarithmic value: minus log10 of concentration in mol/L. Answer with that number alone.

| COMPOUND | TARGET_DESC | pKi |
| --- | --- | --- |
| O=C(O)CNc1cccc(CN(Cc2ccc(C3=NCCS3)cc2)S(=O)(=O)c2ccc(F)cc2)n1 [Example 5] | EP2 (Homo sapiens, UniProt P43116) | 8.15 |

Query: Param item = O=C(O)CNc1cccc(CN(Cc2ccc(-c3ccccc3)cc2)S(=O)(=O)c2ccccn2)n1 [Example 17, hydrochloride] ; retrieve measured pKi.
Result: 8.82

Query: Name the recorded pKi for COc1ccc2cc(CN(Cc3cccc(NCC(=O)O)n3)S(=O)(=O)c3cccnc3)sc2c1 [Example 15, hydrochloride] .
Result: 8.03

Query: Reported pKi for O=C(O)CNc1cccc(CN(Cc2cc3ccccc3s2)S(=O)(=O)c2cccnc2)n1 [Example 13, hydrochloride] : what is it?
Result: 7.89

###

TARGET_DESC: EP2 (Homo sapiens, UniProt P43116)
PROCEDURE_DETAILS: Measurement of EP2 receptor binding action
Parameters: expressed in transfected cells; host or cells: HEK293 cells (membrane fraction)
COND: read-out: Ki Value of EP2 Receptor Binding Action
Where a name gives a salt, the structure may show the parent alone.
READOUT_NAME: pKi
Lab note: report pKi as minus log10 of the concentration in molar units, number only.

Here's what some known entries look like.
| COMPOUND | TARGET_DESC | READOUT_NAME | QUANTITATIVE_RESULT |
| --- | --- | --- | --- |
| O=C(O)CNc1cccc(CN(Cc2ccc(-c3nccs3)cc2)S(=O)(=O)c2ccccn2)n1 | EP2 (Homo sapiens, UniProt P43116) | pKi | 8.72 |
| O=C(O)CNc1cccc(CN(Cc2ccc(-c3ncccn3)cc2)S(=O)(=O)c2ccccn2)n1 [Example 18, hydrochloride] | EP2 (Homo sapiens, UniProt P43116) | pKi | 8.04 |
| O=C(O)CNc1cccc(CN(Cc2ccc(-c3nccs3)cc2)S(=O)(=O)c2cccnc2)n1 [Example 11, trifluoroacetate] | EP2 (Homo sapiens, UniProt P43116) | pKi | 8.42 |
| O=C(O)CNc1cccc(CN(Cc2ccc(-c3ccc(F)cc3)cc2)S(=O)(=O)c2cccnc2)n1 [Example 9, hydrochloride] | EP2 (Homo sapiens, UniProt P43116) | pKi | 8.36 |
| O=C(O)CNc1cccc(CN(Cc2cc3ccc(Cl)cc3s2)S(=O)(=O)c2cccnc2)n1 [Example 12, hydrochloride] | EP2 (Homo sapiens, UniProt P43116) | pKi | 8.96 |

Here is another compound to look at.
Query: Using the record for O=C(O)CNc1cccc(CN(Cc2ccc(-c3cscn3)cc2)S(=O)(=O)c2ccccn2)n1 , report its pKi.
Result: 8.51

###

TARGET_DESC: EP2 (Homo sapiens)
PROCEDURE_DETAILS: Measurement of EP2 agonist activity (cAMP in HEK293 cells)
COND: amount of cAMP in HEK293 cells (ES-562-C, Euroscreen), 30 minutes
Where a name gives a salt, the structure may show the parent alone.
READOUT_NAME: EC50 (nM)
Reply numerically in nM, unit not repeated.

| COMPOUND | UNIT_ABBREVIATION | EC50 |
| --- | --- | --- |
| O=C(O)CNc1cccc(CN(Cc2ccc(-c3ccccc3)cc2)S(=O)(=O)c2ccccn2)n1 [Example 17, hydrochloride] | nM | 1.8 |
| O=C(O)CNc1cccc(CN(Cc2ccc(-n3cccn3)cc2)S(=O)(=O)c2ccc(F)cc2)n1 | nM | 0.78 |
| COc1ccc2cc(CN(Cc3cccc(NCC(=O)O)n3)S(=O)(=O)c3cccnc3)sc2c1 [Example 15, hydrochloride] | nM | 0.96 |
| O=C(O)CNc1cccc(CN(Cc2ccc(C3=NCCS3)cc2)S(=O)(=O)c2ccc(F)cc2)n1 | nM | 1.8 |
| O=C(O)CNc1cccc(CN(Cc2ccc(-n3cccn3)cc2)S(=O)(=O)c2ccccn2)n1 | nM | 1.1 |

Let us examine a further case.
Query: Report EC50 for O=C(O)CNc1cccc(CN(Cc2ccc(-c3cscn3)cc2)S(=O)(=O)c2ccccn2)n1 please.
Result: 0.62
